Reported melting point values are given for each entry in this list.

{"compound": "c1ccc2[nH]c(CN3CCN(c4nsc5ccccc45)CC3)cc2c1 [Example 9]", "melting point": "150 to 152 °C"}
{"compound": "Fc1ccc2[nH]c(CN3CCN(c4cccc(C(F)(F)F)c4)CC3)cc2c1 [Example 10]", "melting point": "196 to 197 °C"}
{"compound": "c1ccc2[nH]c(CN3CCN(c4cccc5ccccc45)CC3)cc2c1 [Example 11]", "melting point": "238 to 239 °C"}
{"compound": "O=C(c1cc2cc(F)ccc2[nH]1)N1CCN(c2ccccc2[N+](=O)[O-])CC1 [Example 7]", "melting point": "184 to 188 °C"}
{"compound": "O=C(c1cc2cc(F)ccc2[nH]1)N1CCN(c2cccc(C(F)(F)F)c2)CC1 [Example 8]", "melting point": "198 °C"}
{"compound": "O=[N+]([O-])c1ccccc1N1CCN(Cc2cc3cc(F)ccc3[nH]2)CC1 [Example 13]", "melting point": "236 °C"}
{"compound": "O=C(c1cc2cc(F)ccc2[nH]1)N1CCN(c2ccccn2)CC1 [Example 18]", "melting point": "214 to 218 °C"}

* * *

observed_property: melting point

{"compound": "FC(F)(F)c1cccc(N2CCN(Cc3cc4ccccc4[nH]3)CC2)c1 [Example 5]", "recorded_value": "192 to 194 °C"}
{"compound": "Fc1ccc2[nH]c(CN3CCN(c4cccc5ccccc45)CC3)cc2c1 [Example 14]", "recorded_value": "249 to 250 °C"}
{"compound": "Oc1ccc2[nH]c(CN3CCN(c4cccc(C(F)(F)F)c4)CC3)cc2c1 [Example 4]", "recorded_value": "188 to 190 °C"}
{"compound": "Fc1ccc2[nH]c(CN3CCN(c4ncccn4)CC3)cc2c1 [Example 17]", "recorded_value": "199 °C"}
{"compound": "O=[N+]([O-])c1ccccc1N1CCN(Cc2cc3ccccc3[nH]2)CC1 [Example 12]", "recorded_value": "210 to 211 °C"}
